// data source = patent US20200121677A1

system: rats; assay: Reversal of the effect of the mGluR2 PAM JNJ-42153605-induced inhibition of scopolamine-induced hyperlocomotion; assay type: in vivo, rat; conditions: Rattus norvegicus; rats, route PO, criterion total distance >1500 cm; read-out: ED50 SCOP JNJ-42153605 (Reversal of the effect of JNJ 42153605 on scopolamine-induced hyperlocomotion)
endpoint: ED50

// solved cases for ED50 follow
COc1cc(N2C[C@H](C)n3ncc(C(=O)Nc4cnccc4C)c3C2=O)ccc1C(F)(F)F    > 0.63 mg/kg
Cc1c(F)cncc1NC(=O)c1cnn2c1C(=O)N(c1ccc(C(F)(F)F)c(Cl)c1)C[C@@H]2C    > 0.63 mg/kg

With those in mind, consider the next molecule.
Any idea what ED50 was measured for `COc1cncc(NC(=O)c2cnn3c2C(=O)N(c2ccc(C(F)(F)F)c(Cl)c2)C[C@@H]3C)c1C` ? > 0.63 mg/kg

---

Items are presented alongside their recorded Emax.
target: human mGlu2 receptor (Homo sapiens, UniProt Q14416); assay: [35S]GTPγS binding assay, mGluR2 negative allosteric modulation (membranes from CHO cells transfected with human mGlu2 receptor, glutamate ~EC80 60 μM); conditions: read-out: GTPγS - hmGluR2 anGT Emax, relative maximal effect: maximal % inhibition relative to the control glutamate response;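 note: membranes preincubated 30 min at 30 °C with compound plus glutamate, then [35S]GTPγS (0.1 nM) incorporation measured over another 30 min at 30 °C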
Sequence (Q14416 19-872): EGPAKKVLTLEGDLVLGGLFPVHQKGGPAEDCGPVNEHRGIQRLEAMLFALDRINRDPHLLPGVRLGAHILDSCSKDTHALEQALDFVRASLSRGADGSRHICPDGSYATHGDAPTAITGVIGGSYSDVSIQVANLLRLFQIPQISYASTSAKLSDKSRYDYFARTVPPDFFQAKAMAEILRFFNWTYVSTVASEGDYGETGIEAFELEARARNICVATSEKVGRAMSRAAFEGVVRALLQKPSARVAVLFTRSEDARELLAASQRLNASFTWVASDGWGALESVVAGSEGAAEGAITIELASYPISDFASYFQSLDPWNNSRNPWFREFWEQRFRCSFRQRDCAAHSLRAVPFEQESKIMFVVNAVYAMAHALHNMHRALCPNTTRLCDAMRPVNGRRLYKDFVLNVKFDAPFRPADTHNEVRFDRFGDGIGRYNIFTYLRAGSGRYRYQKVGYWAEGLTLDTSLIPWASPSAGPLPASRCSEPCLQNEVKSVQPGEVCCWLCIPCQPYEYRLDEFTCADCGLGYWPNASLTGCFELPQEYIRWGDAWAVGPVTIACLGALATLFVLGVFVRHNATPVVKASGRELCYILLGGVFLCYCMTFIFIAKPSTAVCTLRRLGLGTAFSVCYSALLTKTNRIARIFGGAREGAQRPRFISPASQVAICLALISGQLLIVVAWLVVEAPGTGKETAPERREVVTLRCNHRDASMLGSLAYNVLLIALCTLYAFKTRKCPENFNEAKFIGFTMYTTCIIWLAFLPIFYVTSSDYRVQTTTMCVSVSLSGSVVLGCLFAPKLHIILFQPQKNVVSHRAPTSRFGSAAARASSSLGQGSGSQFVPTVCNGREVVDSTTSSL
Respond numerically; units are % and should not be typed.

I am curious: what Emax value has been reported for `COc1ccccc1NC(=O)c1cnn2c1C(=O)N(c1ccc(C(F)(F)F)c(OC)n1)C[C@@H]2C` ? 113

Param item = `C[C@H]1CN(c2ccc(C(F)(F)F)cc2)C(=O)c2c(C(=O)NC3COC3)cnn21` ; retrieve measured Emax. 111

---

Values of melting point greater than or equal to 200 °C map to Criterion met; values below map to Criterion not met.

Cc1cc(NC(=O)c2cnn3c2C(=O)N(c2ccc(C(F)(F)F)c(Cl)c2)C[C@@H]3C)on1    Criterion met
C[C@H]1CN(c2ccc(Cl)c(Cl)c2)C(=O)c2c(C(=O)Nc3ccccn3)cnn21    Criterion met
COc1ccccc1NC(=O)c1cnn2c1C(=O)N(c1ccc(C(F)(F)F)c(OC)n1)C[C@@H]2C    Criterion not met
C[C@H]1CN(c2ccc(C(F)(F)F)cc2)C(=O)c2c(C(=O)Nc3ccc(N)nc3)cnn21    Criterion not met
COc1cccnc1NC(=O)c1cnn2c1C(=O)N(c1ccc(C(F)(F)F)cc1)C[C@@H]2C    Criterion not met

Could you please find out whether `C[C@H]1CN(c2ccc(C(F)(F)F)cc2)C(=O)c2c(C(=O)NCC3CCOCC3)cnn21` has melting point that meets 200 °C or exceeds it? Criterion not met

Given `COc1ccc(NC(=O)c2cnn3c2C(=O)N(c2ccc(C(F)(F)F)c(OC)n2)C[C@@H]3C)cc1` , state whether its melting point is at least 200 °C. Criterion met

Is the recorded value of melting point equal to or greater than 200 °C for this compound? `C[C@H]1CN(c2ccc(C(F)(F)F)cc2)C(=O)c2c(C(=O)Nc3cncc(CO)c3)cnn21` Criterion not met

Can `C[C@H]1CN(c2ccc(C(F)(F)F)cc2)C(=O)c2c(C(=O)NCC3CC3)cnn21` be said to have melting point at or above 200 °C? Criterion not met

---

tested on: rats; assay: Reversal of the effect of the mGluR2 PAM JNJ-42153605-induced inhibition of scopolamine-induced hyperlocomotion; format: in vivo, rat; conditions: Rattus norvegicus; rats, route PO, criterion total distance >1500 cm; read-out: ED50 SCOP JNJ-42153605 (Reversal of the effect of JNJ 42153605 on scopolamine-induced hyperlocomotion)
endpoint: ED50

Examples with answers:
Cc1cc(NC(=O)c2cnn3c2C(=O)N(c2ccc(C(F)(F)F)c(Cl)c2)C[C@@H]3C)cc(C)n1 [compound 107]    > 0.63 mg/kg
C[C@H]1CN(c2ccc(Cl)c(Cl)c2)C(=O)c2c(C(=O)Nc3ccccn3)cnn21 [compound 25]    > 2.5 mg/kg
C[C@H]1CN(c2ccc(Cl)c(Cl)c2)C(=O)c2c(C(=O)Nc3ccc(F)cn3)cnn21 [compound 98]    > 0.63 mg/kg
Cc1cc(N2C[C@H](C)n3ncc(C(=O)Nc4ccccn4)c3C2=O)ccc1C(F)(F)F [compound 35]    > 2.5 mg/kg
COCc1cc(N2C[C@H](C)n3ncc(C(=O)Nc4ccnc(C)c4)c3C2=O)ccc1C(F)(F)F [compound 95]    > 2.5 mg/kg
C[C@H]1CN(c2ccc(C(F)(F)F)c(F)c2)C(=O)c2c(C(=O)Nc3ccc(F)cn3)cnn21 [compound 78]    > 0.63 mg/kg

What ED50 value was documented for this molecule, Cc1cncc(NC(=O)c2cnn3c2C(=O)N(c2ccc(C(F)(F)F)c(Cl)c2)C[C@@H]3C)c1C [compound 126] ? > 0.63 mg/kg

Name the recorded ED50 for Cc1cncc(NC(=O)c2cnn3c2C(=O)N(c2ccc(C(F)(F)F)c(C)c2)C[C@@H]3C)c1 [compound 37] . > 0.63 mg/kg
